Substrate: N[C@@H](Cc1ccccc1)C(=O)O
assay info: purified protein
Type: biochemical, Escherichia coli
setup conditions: co-substrate α-ketoglutarate (fixed, 0.1563–1.25 mM range), 16 µM PLP, 5 mM NAD+, 100 mM potassium phosphate pH 8, 37 °C
measured property: kcat (s⁻¹)
Give the value in s⁻¹ but do not write s⁻¹ after it.

Q. Hello, please tell me recorded kcat for this one: E. coli aspartate aminotransferase (AAT) (Escherichia coli K-12; K37Y/N285S/N64L/T104S/T43I/V35L) (protein, full-length, N-terminal His-tag, expressed in E. coli BL21-Gold (DE3), Ni-NTA purified; 90 kDa homodimer, PLP-dependent) MFENITAAPADPILGLADLFRADERPGKINLGIGLYYDETGKIPVLTSVKKAEQYLLENETTKLYLGIDGIPEFGRCTQELLFGKGSALINDKRARTAQTPGGSGALRVAADFLAKNTSVKRVWVSNPSWPNHKSVFNSAGLEVREYAYYDAENHTLDFDALINSLNEAQAGDVVLFHGCCHNPTGIDPTLEQWQTLAQLSVEKGWLPLFDFAYQGFARGLEEDAEGLRAFAAMHKELIVASSYSKNFGLYNERVGACTLVAADSETVDRAFSQMKAAIRANYSSPPAHGASVVATILSNDALRAIWEQELTDMRQRIQRMRQLFVNTLQEKGANRDFSFIIKQNGMFSFSGLTKEQVLRLREEFGVYAVASGRVNVAGMTPDNMAPLCEAIVAVL
A. 9

Q. // Input: E. coli aspartate aminotransferase (AAT) (Escherichia coli K-12; K37F/N64S/T43C) (protein, full-length, N-terminal His-tag, expressed in E. coli BL21-Gold (DE3), Ni-NTA purified; 90 kDa homodimer, PLP-dependent) MFENITAAPADPILGLADLFRADERPGKINLGIGVYFDETGKCPVLTSVKKAEQYLLENETTKSYLGIDGIPEFGRCTQELLFGKGSALINDKRARTAQTPGGTGALRVAADFLAKNTSVKRVWVSNPSWPNHKSVFNSAGLEVREYAYYDAENHTLDFDALINSLNEAQAGDVVLFHGCCHNPTGIDPTLEQWQTLAQLSVEKGWLPLFDFAYQGFARGLEEDAEGLRAFAAMHKELIVASSYSKNFGLYNERVGACTLVAADSETVDRAFSQMKAAIRANYSNPPAHGASVVATILSNDALRAIWEQELTDMRQRIQRMRQLFVNTLQEKGANRDFSFIIKQNGMFSFSGLTKEQVLRLREEFGVYAVASGRVNVAGMTPDNMAPLCEAIVAVL . Output its kcat only.
A. 87

Q. Provide measured kcat value, entry: E. coli aspartate aminotransferase (AAT) (Escherichia coli K-12; K37F/N64T/T43I) (protein, full-length, N-terminal His-tag, expressed in E. coli BL21-Gold (DE3), Ni-NTA purified; 90 kDa homodimer, PLP-dependent) MFENITAAPADPILGLADLFRADERPGKINLGIGVYFDETGKIPVLTSVKKAEQYLLENETTKTYLGIDGIPEFGRCTQELLFGKGSALINDKRARTAQTPGGTGALRVAADFLAKNTSVKRVWVSNPSWPNHKSVFNSAGLEVREYAYYDAENHTLDFDALINSLNEAQAGDVVLFHGCCHNPTGIDPTLEQWQTLAQLSVEKGWLPLFDFAYQGFARGLEEDAEGLRAFAAMHKELIVASSYSKNFGLYNERVGACTLVAADSETVDRAFSQMKAAIRANYSNPPAHGASVVATILSNDALRAIWEQELTDMRQRIQRMRQLFVNTLQEKGANRDFSFIIKQNGMFSFSGLTKEQVLRLREEFGVYAVASGRVNVAGMTPDNMAPLCEAIVAVL
A. 22.8

Q. Let me know recorded kcat for E. coli aspartate aminotransferase (AAT) (Escherichia coli K-12; K37I/N64S/T43F/V35A) (protein, full-length, N-terminal His-tag, expressed in E. coli BL21-Gold (DE3), Ni-NTA purified; 90 kDa homodimer, PLP-dependent) MFENITAAPADPILGLADLFRADERPGKINLGIGAYIDETGKFPVLTSVKKAEQYLLENETTKSYLGIDGIPEFGRCTQELLFGKGSALINDKRARTAQTPGGTGALRVAADFLAKNTSVKRVWVSNPSWPNHKSVFNSAGLEVREYAYYDAENHTLDFDALINSLNEAQAGDVVLFHGCCHNPTGIDPTLEQWQTLAQLSVEKGWLPLFDFAYQGFARGLEEDAEGLRAFAAMHKELIVASSYSKNFGLYNERVGACTLVAADSETVDRAFSQMKAAIRANYSNPPAHGASVVATILSNDALRAIWEQELTDMRQRIQRMRQLFVNTLQEKGANRDFSFIIKQNGMFSFSGLTKEQVLRLREEFGVYAVASGRVNVAGMTPDNMAPLCEAIVAVL , thanks.
A. 0.54
